Protocol summary: Plasma pharmacokinetics of SHR9146 in mice (LC-MS/MS, non-compartmental analysis)
Format: in vivo, ICR mice
Test settings: both sexes, ICR, mouse, plasma, oral, 20 mg/kg, 20 mg/kg i.g. bid, 7 days; 7th day, 1 h; read-out: plasma drug concentration, individual mice #1-#6

- Line notation: "OCCn1cc(-c2ccc(N3CCC([C@H]4c5c(F)cccc5-c5cncn54)CC3)cc2)cn1"
  concentration at 1 h [ng/mL]: 9900

---

Protocol summary: Plasma pharmacokinetics of SHR9146 in mice (LC-MS/MS, non-compartmental analysis)
Assay type: in vivo, ICR mice
Test settings: female, ICR, mouse, plasma, po, 80 mg/kg, 80 mg/kg i.g. single dose; female mice; plasma; read-out: Tmax
Measurement label: Tmax (h)

- Line notation: "OCCn1cc(-c2ccc(N3CCC([C@H]4c5c(F)cccc5-c5cncn54)CC3)cc2)cn1"
  Readout value: 1.17

---

Protocol summary: Plasma pharmacokinetics of SHR9146 in mice (LC-MS/MS, non-compartmental analysis)
Assay type: in vivo, ICR mice
Test settings: female, ICR, mouse, plasma, iv, 5 mg/kg, 5 mg/kg i.v. single dose; female mice; plasma; read-out: AUC0-t

- Line notation: "OCCn1cc(-c2ccc(N3CCC([C@H]4c5c(F)cccc5-c5cncn54)CC3)cc2)cn1"
  AUC(0-t) [ng·h/mL]: 6800

---

Protocol summary: Plasma pharmacokinetics of SHR9146 in mice (LC-MS/MS, non-compartmental analysis)
Format: in vivo, ICR mice
Test settings: male, ICR, mouse, plasma, iv, 5 mg/kg, 5 mg/kg i.v. single dose; male mice

- Line notation: "OCCn1cc(-c2ccc(N3CCC([C@H]4c5c(F)cccc5-c5cncn54)CC3)cc2)cn1"
  AUC(0-inf), ng·h/mL: 6950

---

Protocol summary: Tissue distribution of SHR9146 in mice after oral gavage of 40 mg/kg
Format: in vivo, ICR mice
Test settings: male, ICR, mouse, adrenal gland, po, 40 mg/kg, male, 3 h, 40 mg/kg oral gavage, Mean (n=3); read-out: SHR9146 concentration in Adrenal gland
Measurement label: concentration at 3 h (ng/g)

- Line notation: "OCCn1cc(-c2ccc(N3CCC([C@H]4c5c(F)cccc5-c5cncn54)CC3)cc2)cn1"
  Readout value: 8450

---

Protocol summary: Plasma pharmacokinetics of SHR9146 in mice (LC-MS/MS, non-compartmental analysis)
Format: in vivo, ICR mice
Test settings: both sexes, ICR, mouse, plasma, oral, 20 mg/kg, 20 mg/kg i.g. single; 4 h; read-out: plasma drug concentration, mean (n=6)
Measurement label: concentration at 4 h (ng/mL)

- Molecule: "OCCn1cc(-c2ccc(N3CCC([C@H]4c5c(F)cccc5-c5cncn54)CC3)cc2)cn1 [SHR9146]"
  Measurement label: "concentration at 4 h"
  Readout value: 526

---

Protocol summary: Tissue distribution of SHR9146 in mice after oral gavage of 40 mg/kg
Assay type: in vivo, ICR mice
Test settings: male, ICR, mouse, skin, po, 40 mg/kg, male, 3 h, 40 mg/kg oral gavage, Mean (n=3); read-out: SHR9146 concentration in Skin
Measurement label: concentration at 3 h (ng/g)

- Line notation: "OCCn1cc(-c2ccc(N3CCC([C@H]4c5c(F)cccc5-c5cncn54)CC3)cc2)cn1"
  Measurement label: "concentration at 3 h"
  Readout value: 3110
